The entries that follow carry pIC50 values tested on UniProt O00418, drawn from several published reports.
Molecular target: UniProt O00418
Sequence (O00418 whole entry): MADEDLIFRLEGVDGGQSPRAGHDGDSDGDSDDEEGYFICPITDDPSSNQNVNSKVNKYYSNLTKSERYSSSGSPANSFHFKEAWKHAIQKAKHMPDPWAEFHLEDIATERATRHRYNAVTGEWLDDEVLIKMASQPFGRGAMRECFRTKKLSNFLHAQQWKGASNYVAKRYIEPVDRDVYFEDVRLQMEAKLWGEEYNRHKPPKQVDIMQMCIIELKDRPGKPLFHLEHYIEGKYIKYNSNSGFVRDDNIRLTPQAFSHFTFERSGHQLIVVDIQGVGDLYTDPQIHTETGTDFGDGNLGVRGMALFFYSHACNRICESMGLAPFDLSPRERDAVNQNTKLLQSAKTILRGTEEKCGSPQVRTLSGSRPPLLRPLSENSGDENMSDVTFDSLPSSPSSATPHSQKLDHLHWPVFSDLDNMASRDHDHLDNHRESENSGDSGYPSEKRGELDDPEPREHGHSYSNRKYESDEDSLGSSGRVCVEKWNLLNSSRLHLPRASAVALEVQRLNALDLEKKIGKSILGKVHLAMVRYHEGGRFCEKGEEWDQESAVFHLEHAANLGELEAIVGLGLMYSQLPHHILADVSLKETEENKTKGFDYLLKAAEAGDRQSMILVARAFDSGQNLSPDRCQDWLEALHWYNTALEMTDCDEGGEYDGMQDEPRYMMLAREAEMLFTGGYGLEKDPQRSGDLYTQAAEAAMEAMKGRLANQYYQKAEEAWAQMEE
For clarity, pIC50 is expressed as the negative log10 of concentration in mol/L.

Below: 3 compounds and their reported pIC50.
compound: NC(=O)c1sc2nc3c(c(C4CC4)c2c1N)CCCCCC3
assay_system: UniProt O00418
pIC50: 5.70
--
compound: O=C(Nc1ccc(F)cc1F)N1CCCN(Cc2ccccc2)CC1
assay_system: UniProt O00418
pIC50: 7.49
--
compound: NC(=O)c1sc2nc3c(c(-c4nccs4)c2c1N)CCCCCC3
assay_system: UniProt O00418
pIC50: 5.85

Req: pIC50 lookup needed for Nc1ncnc2c1sc1nc(N3CCOCC3)c3c(c12)CCCC3 , thanks.
Resp: 6.66

Req: Endpoint output: pIC50 of O=C1CC(c2ccccc2)c2cccc(N3CCCC3)c21 (configuration not stated) . Value?
Resp: 6.64

Req: Which measured pIC50 value corresponds to NC(=O)c1sc2nc3c(c(-c4ccco4)c2c1N)CCCCCC3 ?
Resp: 6.19

Req: Any idea what pIC50 was measured for Nc1ncnc2c1sc1nc3c(cc12)CCCCCCC3 ?
Resp: 5.43

Req: Given NC(=O)c1sc2nc3c(c(-c4cc5ccccc5o4)c2c1N)CCCCCC3 , state its recorded pIC50.
Resp: 6.48

Req: Sample Cc1ccsc1-c1c2c(nc3sc(C(N)=O)c(N)c13)CCCCCC2 — what was its pIC50?
Resp: 6.34

Req: pIC50 lookup needed for COc1ccc(F)c(-c2c3c(nc4sc(C(N)=O)c(N)c24)CCCCCC3)c1 , thanks.
Resp: 5.89

Req: For the compound shown here, N#CC1=C(N)SC(N)=C(C#N)C1c1ccccc1F , give the reported pIC50.
Resp: 4.22

Req: Tell me the measured pIC50 of Nc1ncnc2c1sc1nc3c(c(-c4ccco4)c12)CCCCCCC3 , please.
Resp: 6.46
